Values from patent US20130252930A1

biological target: CYP17 (human testicular microsome) (Homo sapiens, UniProt P05093); construct: using microsomal fraction from human testis (Celsis Cat #S00110) as the enzyme source; tissue Celsis S00110; host or cells: human testis microsomal fraction; test: CYP17 enzymatic assay (% inhibition at 1 nM) (Biological Example 12); format: biochemical; conditions: compound at 1 nM, read-out: Biological Example No. 12: CYP17 enzymatic assay % inhibition at 1 nM
inhibition at 0.001 µM reference

Example cases with answers are listed next.
compound="CCC1CC2C(CC[C@]3(C)C(c4cncc(F)c4)=CCC23)[C@@]2(C)CCC(=O)C=C12 (some centres unmarked)" target_of_assay="CYP17 (human testicular microsome) (Homo sapiens, UniProt P05093)" measured="< 10%"
compound="C[C@]12CC(O)CC1CCC1C2CC[C@]2(C)C(c3cncc(Cl)c3)=CCC12 (some centres unmarked)" target_of_assay="CYP17 (human testicular microsome) (Homo sapiens, UniProt P05093)" measured="10 to 50%"
compound="CC1C[C@@H]2[C@H](CC[C@]3(C)C(c4cccnc4)=CC[C@@H]23)[C@@]2(C)CCC(C)(O)C=C12 (some centres unmarked)" target_of_assay="CYP17 (human testicular microsome) (Homo sapiens, UniProt P05093)" measured="10 to 50%"
compound="CC1CC2C(CC[C@]3(C)C(c4cncc(C(F)F)c4)=CCC23)[C@@]2(C)CCC(=O)C=C12 (some centres unmarked)" target_of_assay="CYP17 (human testicular microsome) (Homo sapiens, UniProt P05093)" measured="10 to 50%"
compound=CN1C(=O)CC[C@@]2(C)C1=CC[C@@H]1[C@@H]2CC[C@]2(C)C(c3cnccc3F)=CC[C@@H]12 target_of_assay="CYP17 (human testicular microsome) (Homo sapiens, UniProt P05093)" measured="10 to 50%"

What does the data say about its inhibition at 0.001 µM? Entry: CCC1CC2C(CC[C@]3(C)C(c4cncc(C(F)F)c4)=CCC23)[C@@]2(C)CCC(=O)C=C12 (some centres unmarked)
< 10%

What does the data say about its inhibition at 0.001 µM? Entry: C[C@]12CCNC(=O)C=C1CCC1C2CC[C@]2(C)C(c3cncc(C(F)F)c3)=CCC12 (some centres unmarked)
> 50%

What does the data say about its inhibition at 0.001 µM? Entry: C[C@]12CCC(=O)C=C1C(C1CC1)C[C@@H]1[C@@H]2CC[C@]2(C)C(c3cncc(F)c3)=CC[C@@H]12 (some centres unmarked)
10 to 50%

---

assay: Human liver microsome stability assay (Biological Example 8b); conditions: liver microsomes, pH 7.4
half-life at 1 μM reference

What does the data say about its half-life at 1 μM? Entry: C[C@]12CCC3C(CC(F)[C@]4(O)C[C@@H](O)CC[C@]34C)C1CC=C2c1cccnc1 (some centres unmarked)
1 to 50 min

What does the data say about its half-life at 1 μM? Entry: C[C@]12CCNC(=O)C=C1C1CC1[C@@H]1[C@@H]2CC[C@]2(C)C(c3cncc(F)c3)=CC[C@@H]12 (some centres unmarked)
1 to 50 min

What does the data say about its half-life at 1 μM? Entry: CC1C[C@@H]2[C@H](CC[C@]3(C)C(c4cccnc4)CC[C@@H]23)[C@@]2(C)CCNC(=O)C=C12 (some centres unmarked)
1 to 50 min

What does the data say about its half-life at 1 μM? Entry: C[C@]12CC[C@H]3[C@@H](CC[C@H]4C[C@@H](O)CC[C@@]43C)C1=CC=C2c1cccnc1
> 50 min

What does the data say about its half-life at 1 μM? Entry: C[C@]12CC[C@H](O)CC1=CCC1C2CC[C@]2(C)C(c3cncc(F)c3)=CCC12 (some centres unmarked)
> 50 min

What does the data say about its half-life at 1 μM? Entry: C[C@]12CC(O)CC1CCC1C2CC[C@]2(C)C(c3cncc(F)c3)=CCC12 (some centres unmarked)
> 50 min

What does the data say about its half-life at 1 μM? Entry: C[C@]12CC[C@H]3[C@@H](CC[C@H]4CC(=O)NCC[C@@]43C)C1=CC=C2n1ccnc1
1 to 50 min

What does the data say about its half-life at 1 μM? Entry: CN1CC[C@@]2(C)C(=CC1=O)CC[C@H]1C3=CC=C(c4cccnc4)[C@@]3(C)CC[C@@H]12
1 to 50 min

What does the data say about its half-life at 1 μM? Entry: C[C@]12CC[C@H](O)CC1=CCC1C2CC[C@]2(C)C(c3ccc(F)nc3)=CCC12 (some centres unmarked)
1 to 50 min

What does the data say about its half-life at 1 μM? Entry: C[C@]12CC[C@H]3[C@@H](CC=C4C[C@@H](O)CC[C@@]43C)C1=CC=C2c1cccnc1
1 to 50 min

What does the data say about its half-life at 1 μM? Entry: C=C1C[C@H]2C3=CC=C(c4cccnc4)[C@@]3(C)CC[C@@H]2[C@@]2(C)C=CC(=O)C=C12
1 to 50 min

What does the data say about its half-life at 1 μM? Entry: CC(=O)N[C@@H]1CC[C@@]2(C)C(=CC[C@@H]3[C@@H]2CC[C@]2(C)C(c4cncc(F)c4)=CC[C@@H]32)C1
1 to 50 min

---

Molecular target: CYP17 (human testicular microsome) (Homo sapiens)
Construct: using microsomal fraction from human testis (Celsis Cat #S00110) as the enzyme source; tissue Celsis S00110; host or cells: human testis microsomal fraction
Sequence (P05093 1-508): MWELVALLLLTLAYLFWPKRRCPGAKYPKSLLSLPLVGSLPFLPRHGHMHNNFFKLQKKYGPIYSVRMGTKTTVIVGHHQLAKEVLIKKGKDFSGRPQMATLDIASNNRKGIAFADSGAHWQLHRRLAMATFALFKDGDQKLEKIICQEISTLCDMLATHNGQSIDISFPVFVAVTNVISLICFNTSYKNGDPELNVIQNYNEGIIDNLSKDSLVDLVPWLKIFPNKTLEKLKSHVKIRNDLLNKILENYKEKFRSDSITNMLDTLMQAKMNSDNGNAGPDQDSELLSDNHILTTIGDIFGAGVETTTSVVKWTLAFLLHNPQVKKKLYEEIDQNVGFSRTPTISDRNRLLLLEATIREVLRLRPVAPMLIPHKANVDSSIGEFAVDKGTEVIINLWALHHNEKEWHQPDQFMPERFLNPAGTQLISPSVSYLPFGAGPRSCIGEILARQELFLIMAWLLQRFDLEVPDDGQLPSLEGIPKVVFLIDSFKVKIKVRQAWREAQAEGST
Assay: CYP17 enzymatic assay (% inhibition at 10 nM), version 1 (Biological Example 5)
Assay type: biochemical
Conditions: 10 nM compound, DHEA by ELISA, read-out: Biological Example No. 5: CYP17 percent inhibition at 10 nM (version 1)
measured_property: inhibition at 0.01 µM

Example cases with answers are listed next.
compound=Cc1cncc(C2=CC[C@H]3[C@@H]4CCN5CCCCC[C@]5(C)[C@H]4CC[C@]23C)c1 measured_property="inhibition at 0.01 µM" measured="1 to 50%"
compound="C[C@]12CCC(=O)NCC1CCC1C2CC[C@]2(C)C(n3ccnc3)=CCC12 (stereo partly shown)" measured_property="inhibition at 0.01 µM" measured="50 to 80%"
compound=COc1cncc(C2=CC[C@H]3[C@@H]4CCN5CCCCC[C@]5(C)[C@H]4CC[C@]23C)c1 measured_property="inhibition at 0.01 µM" measured="1 to 50%"
compound=Cc1cncc(C2=CC[C@H]3[C@@H]4CC[C@H]5CCCCC[C@]5(C)[C@H]4CC[C@]23C)c1 measured_property="inhibition at 0.01 µM" measured="1 to 50%"
compound=COc1cncc(C2=CC=C3[C@@H]4CCC5=CC(=O)N(C)CC[C@]5(C)[C@H]4CC[C@]23C)c1 measured_property="inhibition at 0.01 µM" measured="> 80%"

What does the data say about its inhibition at 0.01 µM? Entry: C[C@]12CCC(=O)CCC1=CCC1[C@@H]2CC[C@]2(C)C(n3ccnc3)=CC[C@@H]12 (stereo partly shown)
> 80%

What does the data say about its inhibition at 0.01 µM? Entry: CN1CC=C2CC[C@@H]3[C@H](CC[C@]4(C)C(n5ccnc5)=CC[C@@H]34)[C@@]2(C)CC1
1 to 50%

---

target: CYP17 (human testicular microsome) (Homo sapiens); construct: using microsomal fraction from human testis (Celsis Cat #S00110) as the enzyme source; tissue Celsis S00110; host or cells: human testis microsomal fraction; experiment: CYP17 enzymatic assay (IC50) (Biological Example 4); type: biochemical; conditions: human testicular microsome; read-out: CYP17 enzymatic assay IC50 (Biological Example No. 4)
measured_property: IC50

Example cases with answers are listed next.
compound="Cc1cncc(C2=CC=C3[C@@H]4CCC5CC(=O)NCC[C@]5(C)[C@H]4CC[C@]23C)c1 (stereo partly shown)" target_of_assay="CYP17 (human testicular microsome) (Homo sapiens)" measured="< 11 nM"
compound="C[C@]12CCC(NC(=O)C3CCC3)CC1=CCC1C2CC[C@]2(C)C(n3ccnc3)=CCC12 (stereo partly shown)" target_of_assay="CYP17 (human testicular microsome) (Homo sapiens)" measured="< 11 nM"

What does the data say about its IC50? Entry: C[C@]12CCC(NC(=O)C3CC3)CC1=CCC1C2CC[C@]2(C)C(n3ccnc3)=CCC12 (stereo partly shown)
< 11 nM

What does the data say about its IC50? Entry: CCC(=O)N1CCC[C@@]2(C)C(CCC3C2CC[C@]2(C)C(c4cccnc4)=CCC32)C1 (stereo partly shown)
< 11 nM

What does the data say about its IC50? Entry: C[C@]12CCC(=O)C=C1C1(CC1)C[C@@H]1[C@@H]2CC[C@]2(C)C(c3cccnc3)=CC[C@@H]12
< 11 nM

What does the data say about its IC50? Entry: C[C@]12CC[C@@H](NC(=O)C3CC3)CC1=CCC1C2CC[C@]2(C)C(c3cccnc3)=CCC12 (stereo partly shown)
< 11 nM

What does the data say about its IC50? Entry: C[C@]12CC[C@H](O)C[C@@H]1CC[C@@H]1[C@@H]2CC[C@]2(C)C(n3ccnn3)=CC[C@@H]12
< 11 nM
